assay: Stability in TPGS/PG over 22 h; format: physicochemical; conditions: TPGS/PG, ambient temperature, 22 h
VALUE_TYPE: Amount of compound (mg/mL)

CCCCCCCCOC(=O)Oc1cc(/C=C(\C#N)C(=O)N(CC)CC)cc([N+](=O)[O-])c1O | 1.23
CCN(CC)C(=O)/C(C#N)=C/c1cc(OC(=O)OCC2CCCCC2)c(O)c([N+](=O)[O-])c1 | 1.31
CCCCC(CC)COC(=O)Oc1cc(/C=C(\C#N)C(=O)N(CC)CC)cc([N+](=O)[O-])c1O (stereo not shown) | 1.05
CCCC(C)OC(=O)Oc1cc(/C=C(\C#N)C(=O)N(CC)CC)cc([N+](=O)[O-])c1O (stereo not shown) | 1.08

Hello, the source for this data is patent US20080103191A1, in case you need it.
